Could you please report measured Inhibition for the items listed next?
# Tested on: HepG2
# assay.remarks: GSK_TCMDC: Percent inhibition of human HepG2 cell line. Test compounds present at 10uM.
# Format: functional
Numbers only, in %.

Please state Inhibition for every molecule in the list that follows.
1. CS(=O)(=O)CCNCc1cccc(-c2ccc3c(Nc4ccc(Oc5ccccc5)cc4)ccnc3c2)c1
2. O=C(Cc1ccc(NC(=O)c2ccc(O)c(-c3ccc(Cl)c(Cl)c3)c2)cc1)NCc1cccc(C(F)(F)F)c1
3. COc1ccc(CCN2CC[C@H](CNc3nc(-c4ccccc4)nc4ccccc34)C2)cc1S(N)(=O)=O.O=C(O)C(F)(F)F
4. CN1CCC(C(=O)N(Cc2ccc(-c3ccc(CNCCc4ccc(S(C)(=O)=O)cc4)cn3)cc2)Cc2cccc(F)c2)CC1.O=C(O)C(F)(F)F

Response:
18
0
54
10

// for each molecule in input: emit Inhibition
1. Cl.O=C(CNC1=NCCN1)Nc1ccc(NC(=O)Nc2ccc(NC(=O)CNC3=NCCN3)cc2)cc1
2. CC1CCCCN1CCCNC(=O)c1cccc(-c2cc3cc(Cl)c(Cl)cc3[nH]2)c1.O=C(O)C(F)(F)F (centres undefined)
3. CCn1cc(CN2CCCC(C(=O)Nc3ccc(-c4nc5ccccc5[nH]4)cc3)C2)c(C)n1 (centres undefined)
4. CCOC(=O)NC1=NC(=N)N(OCCCOc2cc(Cl)c(Cl)cc2Cl)C(C)(C)N1

Response:
1: 0; 2: 22; 3: 22; 4: 63

Please give Inhibition for each item listed below.
1. COc1ccc(C(=O)Nc2ccc(Nc3nc(C)cc(N(C)C)n3)cc2)c(OC)c1
2. O=c1cc(NCCCNCc2cc(C(F)(F)F)ccc2F)[nH]c2ccccc12

Response:
[34, 0]

Please give Inhibition for each item listed below.
1. CC(C)C1=NC(=O)c2cc([N+](=O)[O-])ccc2CN1
2. CCCNCc1ccc(-c2ccc(CN(CCOC)C(=O)c3nn(-c4ccccc4)nc3C)cc2)nc1.O=C(O)C(F)(F)F
3. O=C(Nc1nc(-c2ccccn2)cs1)c1ccccc1COc1ccccc1
4. O=C(Nc1ccc(Br)cc1)c1cc(Br)ccc1NS(=O)(=O)c1ccc(C(F)(F)F)cc1
5. O=c1cc(NCCCNCc2ccc(C(F)(F)F)cc2F)[nH]c2ccccc12
6. Cc1ccc2[nH]c(-c3ccccc3N)cc2c1
7. CCCCc1ccc(-c2c(N)nc(N)nc2CC)cc1

Response:
[6, 18, 34, 53, 1, 11, 63]

For each entry beneath this line, provide reported Inhibition.
1. Cc1cc2cc(-c3ccc(CN)cc3)ccc2nc1N
2. CC(C)(C)c1ccc(CN2CCC(CNC(=O)c3cc(-c4ccccc4)nc4ccccc34)CC2)cc1

Response:
1. 18
2. 33

###

# Test system: Plasmodium falciparum
# assay.remarks: GSK_TCMDC: Inhibition of Plasmodium falciparum Dd2 in whole red blood cells, using parasite LDH activity as an index of growth. Test compounds present at 2uM
# Type: functional
Mark 1 only for Inhibition values smaller than 80%; exact matches and larger values are 0.

Prompt: Threshold test, Inhibition < 80%: CCN(CC)CCN(Cc1ccc(-c2ccc(Cl)cc2)cc1)C(=O)Cn1c(CCc2cccc(F)c2F)nc(=O)c2ccccc21.O=C(O)C(O)C(O)C(=O)O
Response: 1

Prompt: API: query returns whether the compound falls strictly under 80% in Inhibition. Query: COc1ccc(-c2csc3nc(C)nc(Cl)c23)cc1OC
Response: 0
